# Species: Rattus norvegicus
# protocol details: DrugMatrix - Regimen: Daily Repeat
# Format: toxicity, organism-based, Sprague-Dawley
# Design: regimen Daily Repeat, gender Male, age 6-8 weeks
# condition info: in vivo, iv, 0 mg/kg, 72 h, tissue Plasma, dose level Control, time 3 day, vehicle 100 % SALINE
Below, each entry is listed with its recorded LACTATE DEHYDROGENASE.
Write the number in u/L without appending the unit.

# count of solved cases: 3
COc1cccc2c1C(=O)c1c(O)c3c(c(O)c1C2=O)C[C@@](O)(C(=O)CO)C[C@@H]3O[C@H]1C[C@H](N)[C@@H](O)[C@H](C)O1 [EPIRUBICIN]
382
CC[C@]1(O)C[C@@H]2CN(CCc3c([nH]c4ccccc34)[C@@](C(=O)OC)(c3cc4c(cc3OC)N(C)[C@H]3[C@@](O)(C(=O)OC)[C@H](OC(C)=O)[C@]5(CC)C=CCN6CC[C@]43[C@@H]65)C2)C1
442.5
CC(=O)N[C@@H]1[C@H](Oc2c3cc4cc2Oc2ccc(cc2Cl)[C@@H](O[C@@H]2O[C@@H](CO)[C@@H](O)[C@H](O)[C@@H]2NC(C)=O)[C@@H]2NC(=O)[C@H](NC(=O)[C@@H]4NC(=O)[C@H]4NC(=O)[C@@H](Cc5ccc(c(Cl)c5)O3)NC(=O)[C@H](N)c3ccc(O)c(c3)Oc3cc(O)cc4c3)c3ccc(O)c(c3)-c3c(O[C@H]4O[C@H](CO)[C@@H](O)[C@@H](O)[C@@H]4O)cc(O)cc3[C@@H](C(=O)O)NC2=O)O[C@@H](CO)[C@@H](O)[C@@H]1O
245.17

**Q:** Look up LACTATE DEHYDROGENASE for this compound: COc1cccc2c1C(=O)c1c(O)c3c(c(O)c1C2=O)C[C@@](O)(C(=O)CO)C[C@@H]3O[C@H]1C[C@H](N)[C@H](O)[C@H](C)O1
**A:** 88.67

**Q:** What measured LACTATE DEHYDROGENASE goes with CCC1=C[C@@H]2CN(C1)Cc1c([nH]c3ccccc13)[C@@](C(=O)OC)(c1cc3c(cc1OC)N(C)[C@H]1[C@@](O)(C(=O)OC)[C@H](OC(C)=O)[C@]4(CC)C=CCN5CC[C@]31[C@@H]54)C2 ?
**A:** 125.33
